test: protein stability index of a GFP-peptide fusion (yeast GPS) (PSI 1-4); higher = more stable; sorted into four equal gates, so the index is relative within each strain; settings: pdr5∆
Assign Yes whenever protein stability index does not fall below 3; assign No whenever it does.

Ask: State whether the measured protein stability index reaches 3, counting equality as reaching it, for SVPLMINAKNIAFASNY [RRP43]
Reply: No

Ask: Kindly determine if protein stability index recorded for NVKYRAVVFKPFKGEVV [RPB7] is above or exactly 3.
Reply: No

Ask: Dear colleague, could you confirm whether EHIKQDYVASLNELYQT [NSL1] has protein stability index at or above 3?
Reply: Yes

Ask: Quick check, protein stability index >= 3? LAYAVLGIALIALGEDI [RPN1]
Reply: No

Ask: State whether the measured protein stability index reaches 3, counting equality as reaching it, for SNASRRKLINYTKKHLS [RPN4]
Reply: No

Ask: Kindly determine if protein stability index recorded for EDVLSSFYRVEKIKKIN [SSN2] is above or exactly 3.
Reply: No

* * *

experiment: protein stability index of a GFP-peptide fusion (yeast GPS) (PSI 1-4); higher = more stable; sorted into four equal gates, so the index is relative within each strain; settings: doa10∆
measurement type: protein stability index
Number only, no unit.

Ask: // protein stability index lookup, key: SVQINVAKVDEEGRAIP [RPS21A]
Reply: 3.28

Ask: Reported protein stability index for RREFKQYSLERNSPFWW [PRP8] : what is it?
Reply: 3.06

Ask: Data request, read-out protein stability index, for KYKQLLLKDDTYQLCVR [RPN3]
Reply: 1.46

Ask: Which measured protein stability index value corresponds to SHNENKMDFSSKEGQYK [YIL149C/MLP2] ?
Reply: 3.27

Ask: Endpoint output: protein stability index of ASDMSDEDIITIFKYLT [CDC53] . Value?
Reply: 2.84

Ask: Suppose we examine the sequence DRNLTEFDSTDTSLCIN [RRI1] ; what protein stability index value has been reported?
Reply: 2.98

Ask: Given TTAVDALQKGLKDLMDL [RPC19] , state its recorded protein stability index.
Reply: 3.58

Ask: Can you look up the measured protein stability index of SSNIVNENDSQAIITER [YIL149C/MLP2] for me?
Reply: 3.14

Ask: Quick one: protein stability index of YEKELMGDELTRSHFNA [RPN6] ?
Reply: 2.96

Ask: protein stability index lookup needed for MGKGKPRGLNSARKLRV [RPS23A] , thanks.
Reply: 2.4

Ask: Any idea what protein stability index was measured for YVNALADVLYKTAFKPH [QCR2] ?
Reply: 3.04

Ask: Consider the sequence KALAIFVPVPSLAGFHK [RPS7A] and give its measured protein stability index.
Reply: 2.29

Ask: Which protein stability index is listed for LESKMSEVGDAFIFGLQ [SMC3] ?
Reply: 3.29

Ask: Which value of protein stability index has been reported for SNTYKEERSNNLLTPQP [MCD1] in the records?
Reply: 2.76

Ask: Please look up its protein stability index: NLPKDKSGIPEFTPADP [SSN2]
Reply: 2.99

Ask: Query (sequence): FKKQMQTIMKMGPLSNI [SRP54] ; field requested: protein stability index
Reply: 2.59

Ask: Data request, read-out protein stability index, for GLNNDFLFQNINFERID [GRR1]
Reply: 2.09

Ask: Param item = GILLLDSLIQLANRSKE [YJL039C/NUP192] ; retrieve measured protein stability index.
Reply: 1.86

Ask: Endpoint output: protein stability index of SSTKPPGSVNSAAKYKD [NUT1] . Value?
Reply: 2.68

Ask: # query: protein stability index of entry RLDILDPALLRPGRIDR [RPT6]
Reply: 2.79

Ask: Need protein stability index, item RFNAKVSMVKRAIDSLI [CDC53]
Reply: 1.86

Ask: Reported protein stability index for VRNYKPLINRLKHYNGY [SWI1] : what is it?
Reply: 1.79

Ask: Recorded protein stability index for FFEMLISKSLTFSQESG [RRI2] , please?
Reply: 2.12

Ask: State the recorded protein stability index for this entry: LMEEIESLKKELQIFKT [YIL149C/MLP2]
Reply: 2.94

Ask: Query (sequence): RVERSSRSTDNFHNSKK [RRI1] ; field requested: protein stability index
Reply: 3.31

Ask: Name the reported protein stability index value associated with the sequence TDKKAFLGALKYLPHAI [PRP8]
Reply: 2.94

Ask: What does the data say about its protein stability index? Entry: EGYQNDINTIKLQLSFV [SRP72]
Reply: 3.12

Ask: Sample QEMIEISNVIKPNQTIM [SRP54] — what was its protein stability index?
Reply: 2.62

Ask: Requested read-out: protein stability index. Entry: IEKTESVDKKVDSGEER [SWI3]
Reply: 3.26

Ask: So what's the measured protein stability index for this one? GTVGNSHKTTKEDTVSW [RPL11A]
Reply: 3.07

Ask: Quick check: protein stability index of KGVTEKDAVDYSKIPNI [RRP6] ?
Reply: 3.24

Ask: protein stability index lookup needed for DFDESLKYLDDLKAQFQ [RPN9] , thanks.
Reply: 3.02

Ask: Quick check: protein stability index of LCDNFNHFSLSYKDSGL [COR1] ?
Reply: 2.27

Ask: I would be grateful if you could share the reported protein stability index for NSSEQESDYEPNNETSV [SIR3] .
Reply: 3.11

Ask: Given the entry FCGKKTVKRGAAGIWTC [RPL43A] , report its measured protein stability index.
Reply: 1.79

Ask: Reported protein stability index, sequence PTESYLQYIIHDTLNNE [BRR2] : ____
Reply: 2.22

Ask: Please give the measured protein stability index for this sequence: DLKSLNVRDDMKPSDNI [SSN2]
Reply: 2.94

Ask: # get_value(readout='protein stability index', item= LDTRKELWRKEQKLQTV [SMC3] )
Reply: 1.79

Ask: Which protein stability index is listed for LSMNIAPRLRLEDIFQQ [RET1] ?
Reply: 2.06

Ask: Param item = VLEQLSGQTPVQSKARY [RPL11A] ; retrieve measured protein stability index.
Reply: 3.2

Ask: // returns reported protein stability index for input VFHDPDHSMILPSGVLS [SMC3]
Reply: 1.71

Ask: Give its protein stability index value. Item: HETLARSSEEINSDNQN [RPN3]
Reply: 3.15

Ask: Given the entry ELLETVSLTKRKQEREI [YIL149C/MLP2] , report its measured protein stability index.
Reply: 1.43

Ask: Record request: protein stability index value, item AGKWFDPVLDWRKSDRE [SIR4]
Reply: 3.17

Ask: Recorded protein stability index of KKIMDETPSRLLLSPDQ [ITC1] , please.
Reply: 3.04

Ask: I have this sequence here, EVSQFLIENGASVRIKD [NAS6] , and I need its recorded protein stability index.
Reply: 3.08

Ask: State the recorded protein stability index for this entry: DELDAIGTKRFDSEKSG [RPT5]
Reply: 2.46

Ask: Would you kindly share the measured protein stability index for SPHYNSQKQTLIKKPLT [SSN3] ?
Reply: 2.52

Ask: Item under review: FLKHNGEEDAVDLLLEI [RPN1] . Reported protein stability index?
Reply: 3.23

Ask: I have this sequence here, FFTIDHFIQKLHTARKI [SIR2] , and I need its recorded protein stability index.
Reply: 1.75

Ask: For the sequence VAGGKKALAIFVPVPSL [RPS7A] , what protein stability index is on record?
Reply: 2.49

Each recorded value in this set is attributed to the supplement of paper PMC9732359.
